These entries and their values trace back to the array DNA melting data of Ke et al. (doi:10.1101/2024.01.08.574731).

assay: folding enthalpy; higher = less favourable; fluorescence melt of hairpins on a sequencing array, two-state fit; settings: sodium 0.088 M
Where folding enthalpy equals or exceeds -20 kcal/mol, the correct label is rule met; where it does not, the label is rule not met.

GCATATCGAAAGATTGC (((.(((....)))))) : rule not met
GAAGCCGGAAACGGCTCC (.(((((....))))).) : rule met
GATCTCGCTCGAGATC ((((((....)))))) : rule not met
GATCGATATGTCGATC ((((((....)))))) : rule not met

Prompt: Given the entry GCGGTCCCCCGC ((((....)))) , answer whether its folding enthalpy meets or surpasses -20 kcal/mol.
Completion: rule not met

Prompt: Does folding enthalpy meet or surpass -20 kcal/mol for GTGCATCCGAAAGGACAC (((..(((....)))))) ?
Completion: rule met

Prompt: Please tell me: is the sequence GATCTGCTTCCAGATC ((((((....)))))) at or over -20 kcal/mol in terms of folding enthalpy?
Completion: rule not met

Prompt: Check the entry GTATCCCGAAAGGGTTAC (((.(((....))).))) : does folding enthalpy equal or exceed -20 kcal/mol?
Completion: rule not met
